System: pigweed (Amaranthus retroflexus)
Assay: Test A preemergence, visual injury rating
Format: in vivo
Details: 31 g ai/ha, 0 to 100 scale, 0 no effect, 100 complete control
Measure name: Plant response rating, Pigweed
Answer as a number with no unit attached.

Below, each entry is followed by its recorded Plant response rating, Pigweed result.
{"Molecule": "O=C(OCC(F)(F)C(F)(F)F)c1c(F)cccc1Oc1ncc(Br)cn1", "Assay result": 0}
{"Molecule": "FC(F)(F)CCCc1c(Cl)cccc1Oc1ncc(Cl)cn1", "Assay result": 40}
{"Molecule": "CC(=NOC(C)C)c1c(Cl)cccc1Oc1ncc(Cl)cn1", "Assay result": 0}
{"Molecule": "N#Cc1cccc(Oc2ncc(Cl)cn2)c1C(=O)CCC(F)(F)F", "Assay result": 0}
{"Molecule": "CCCCC(C#N)c1ccccc1Oc1ncc(Cl)cn1 (centres unmarked)", "Assay result": 90}
{"Molecule": "FC(F)(F)COCc1c(Br)cccc1Oc1ncc(Cl)cn1", "Assay result": 60}

For `CN(CCC(F)(F)F)C(=O)c1c(Br)cccc1Oc1ncc(Cl)cn1` , what is its reported Plant response rating, Pigweed?
0

Another molecule: `O=C(CCC(F)(F)F)c1c(Cl)cccc1Oc1ncc(Cl)cn1`
100

Then what about the molecule `O=C(OCCC(F)(F)F)c1cc(Br)ccc1Oc1ncc(Cl)cn1` ?
0

Same question, CCCC(C#N)c1c(Br)cccc1Oc1ncc(Cl)cn1 (centres unmarked) this time
20

Next entry: `C=C(Cl)COC(=O)c1c(Br)cccc1Oc1ncc(Cl)cn1`
40

Would you mind doing `CC(C)Oc1cccc(Oc2ncc(Cl)cn2)c1C(=O)OCCC(F)(F)F` as well?
0

For `COc1cccc(Oc2ncc(Cl)cn2)c1C(=O)OCCC(F)(F)F` then?
60
